Where these numbers come from: patent US20200188361A1

test system: HOX-med/low AML patient cells; assay: Primary chemical screen of 60 compounds, cell dose-response viability assay (CellTiterGlo, 6 days); format: cell-based, human; conditions: Homo sapiens, 144 h; primary screen; mean over HOX-med/low patient specimens; 6 days culture; top concentration 10 μM or 20 μM; read-out: MEAN EC50 HOX-med/low
# strict inequality: EC50 < 1 µM yields Met, everything else yields Not met

[[record]]
molecule = "Cc1cn(-c2cc(NC(=O)c3ccc(C)c(Nc4nccc(-c5cccnc5)n4)c3)cc(C(F)(F)F)c2)cn1"
label_class = "Not met"

[[record]]
molecule = "CO[C@H]1C[C@@H]2CC[C@@H](C)[C@@](O)(O2)C(=O)C(=O)N2CCCC[C@H]2C(=O)O[C@H]([C@H](C)C[C@@H]2CC[C@@H](O)[C@H](OC)C2)CC(=O)[C@H](C)/C=C(\\C)[C@@H](O)[C@@H](OC)C(=O)[C@H](C)C[C@H](C)/C=C/C=C/C=C/1C"
label_class = "Met"

[[record]]
molecule = "c1cc(CN2CCCNCCNCCCNCC2)ccc1CN1CCCNCCNCCCNCC1"
label_class = "Not met"

[[record]]
molecule = "Cn1cc(C2=C(c3cn(C4CCN(Cc5ccccn5)CC4)c4ccccc34)C(=O)NC2=O)c2ccccc21"
label_class = "Not met"

[[record]]
molecule = "C[C@]1(O)C[C@@H](c2nc(-c3ccc4ccc(-c5ccccc5)nc4c3)c3c(N)nccn32)C1"
label_class = "Not met"


In: Please let me know if "Cn1cnc2c(F)c(Nc3ccc(Br)cc3Cl)c(C(=O)NOCCO)cc21" shows EC50 below 1 µM.
Out: Not met

In: Is 1 µM strictly greater than the molecule's reported EC50? molecule: "COc1ccc(-c2ccc3c(N4CCOC[C@@H]4C)nc(N4CCOC[C@@H]4C)nc3n2)cc1CO"
Out: Met

---

test system: HOX-high AML patient cells; test: Primary chemical screen of 60 compounds, cell dose-response viability assay (CellTiterGlo, 6 days); format: cell-based, human; conditions: primary screen; mean over HOX-high patient specimens; 6 days culture; top concentration 10 μM or 20 μM; read-out: MEAN EC50 HOX-high
// reported pEC50 for each item listed
Conceptually, pEC50 converts a concentration in mol/L into minus its log10.

[[record]]
molecule = "Cc1[nH]c(/C=C2\\C(=O)Nc3cc(-c4ccccc4)ccc32)c(C)c1CCC(=O)O [PDGFR Tyrosine Kinase Inhibitor VII]"
measurement = 5.22

[[record]]
molecule = "CCN(CC)CCCCNc1ncc2cc(-c3cc(OC)cc(OC)c3)c(NC(=O)NC(C)(C)C)nc2n1 [PD173074]"
measurement = 5.31


In: Data request, read-out pEC50, for Cc1nc2cc3nc(-c4cccs4)cnc3cc2n1C [AGL2043]
Out: 5.05

---

test system: HOX-high AML patient cells; test: Primary chemical screen of 60 compounds, cell dose-response viability assay (CellTiterGlo, 6 days); format: cell-based, human; conditions: Homo sapiens, 144 h, read-out: MEAN EC50 HOX-high
value-type: pEC50
Please treat pEC50 as minus the base-10 logarithm of the molar concentration.

In: I would be grateful if you could share the reported pEC50 for "N#CC(=C(/N)Sc1ccccc1N)/C(C#N)=C(\N)Sc1ccccc1N" .
Out: 5.35

---

The following molecules are listed with their measured EC50 values.
test system: HOX-high AML patient cells; experiment: Primary chemical screen of 60 compounds, cell dose-response viability assay (CellTiterGlo, 6 days); type: cell-based, human; settings: primary screen; mean over HOX-high patient specimens; 6 days culture; top concentration 10 μM or 20 μM; read-out: MEAN EC50 HOX-high
# output: bare number, implied unit µM

Here is how some molecules turned out for EC50.
[[record]]
molecule = "CN1CCC(c2[nH]nc(-c3ccc(Cl)cc3)c2-c2ccncn2)CC1"
value_type = "EC50"
measurement = 7.31

[[record]]
molecule = "CNc1cc2c(Nc3cccc(Br)c3)ncnc2cn1"
value_type = "EC50"
measurement = 7.47


With those in mind, consider the next molecule.
In: EC50 for Nc1nc(Nc2ccc3c(c2)CCC(N2CCCC2)CC3)nn1-c1cc2c(nn1)-c1ccccc1CCC2 (centres unmarked) ?
Out: 0.487
